Molecular target: T1, murine GPC3-his protein (Sino Biological, Cat. No. 50989-M08B) (murine, UniProt Q8CFZ4 25-558)
T1 construct: Bought protein; also called murine GPC3 protein
T1 sequence (Q8CFZ4 25-558 limits assumed): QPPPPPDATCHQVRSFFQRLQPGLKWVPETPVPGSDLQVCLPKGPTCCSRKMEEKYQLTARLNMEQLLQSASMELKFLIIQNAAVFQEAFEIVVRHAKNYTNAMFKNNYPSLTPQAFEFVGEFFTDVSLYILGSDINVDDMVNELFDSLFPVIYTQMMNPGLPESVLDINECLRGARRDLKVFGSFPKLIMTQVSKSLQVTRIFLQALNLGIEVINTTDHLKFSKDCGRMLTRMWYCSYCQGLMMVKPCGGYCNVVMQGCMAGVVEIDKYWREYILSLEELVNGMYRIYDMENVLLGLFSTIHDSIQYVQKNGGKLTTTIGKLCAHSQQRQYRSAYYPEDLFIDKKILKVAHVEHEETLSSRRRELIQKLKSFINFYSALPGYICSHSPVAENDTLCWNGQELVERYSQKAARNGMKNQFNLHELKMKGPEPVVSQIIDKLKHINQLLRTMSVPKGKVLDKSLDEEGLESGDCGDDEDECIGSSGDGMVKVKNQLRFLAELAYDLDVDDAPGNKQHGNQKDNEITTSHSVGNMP
Test: ELISA, coated murine GPC3-His;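 also: antigen coated on plates at 1 µg/mL, test antibody bound for 2 h at 37 °C, detected with HRP-conjugated secondary antibody and TMB substrate after acid stop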
result type: OD450 at 0.1 nM antibody (OD450 nm)
// units = OD450 nm; emit number, no label

# binder, scale unit, OD450 at 0.1 nM antibody
data = [
    ("F1.110.24 human-murine chimeric antibody (antibody, human IgG1, kappa, V domains shown) VH: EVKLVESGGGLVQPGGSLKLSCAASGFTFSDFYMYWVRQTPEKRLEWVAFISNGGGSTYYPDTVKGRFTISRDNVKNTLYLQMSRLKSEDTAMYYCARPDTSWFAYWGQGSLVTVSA VL: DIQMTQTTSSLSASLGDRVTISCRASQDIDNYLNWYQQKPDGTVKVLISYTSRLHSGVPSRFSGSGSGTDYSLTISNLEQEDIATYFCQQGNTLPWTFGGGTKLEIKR", "OD450 nm", 0.12),
    ("F1.41.17 human-murine chimeric antibody (antibody, human IgG1, kappa, V domains shown) VH: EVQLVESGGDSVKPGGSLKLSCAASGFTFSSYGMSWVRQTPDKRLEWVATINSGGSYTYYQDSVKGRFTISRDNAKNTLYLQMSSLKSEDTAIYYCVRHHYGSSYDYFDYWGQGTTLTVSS VL: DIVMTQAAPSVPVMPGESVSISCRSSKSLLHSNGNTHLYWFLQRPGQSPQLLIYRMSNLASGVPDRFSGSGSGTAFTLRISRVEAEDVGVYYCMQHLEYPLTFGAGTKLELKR", "OD450 nm", 0.06),
    ("F4.13.7 human-murine chimeric antibody (antibody, human IgG1, kappa, V domains shown) VH: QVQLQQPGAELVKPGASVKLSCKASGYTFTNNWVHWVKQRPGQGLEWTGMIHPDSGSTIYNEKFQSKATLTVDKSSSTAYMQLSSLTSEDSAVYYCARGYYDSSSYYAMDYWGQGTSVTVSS VL: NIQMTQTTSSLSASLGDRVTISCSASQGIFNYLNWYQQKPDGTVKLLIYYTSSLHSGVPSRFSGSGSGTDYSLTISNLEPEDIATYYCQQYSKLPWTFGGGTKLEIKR", "OD450 nm", 2.12),
    ("F2.152.3 human-murine chimeric antibody (antibody, human IgG1, kappa, V domains shown) VH: EVQLQQSGPELVKPGASVKMSCKASGYTFTDYYMTWVKQSHGKSLEWIGRVNPRNGDTTYNQKFEGRATLTLDKSLSTAFMQLNSLTSEDSAVYYCINSKGHFDYWGQGTTLTVSS VL: DVLMTQTPLSLPVSLGDQASISCRSSQSIVHSNGNTYLEWFLQKPGQSPKSLIYKVSNRFSGVPDRFSGSGSGTDFTLKISRVEAEDLGVYYCFQGSHVPPTFGAGTKLELKR", "OD450 nm", 1.94),
    ("F1.9.19 human-murine chimeric antibody (antibody, human IgG1, kappa, V domains shown) VH: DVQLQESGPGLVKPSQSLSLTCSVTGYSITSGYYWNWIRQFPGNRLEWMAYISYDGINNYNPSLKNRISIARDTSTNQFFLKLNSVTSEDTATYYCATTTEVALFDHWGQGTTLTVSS VL: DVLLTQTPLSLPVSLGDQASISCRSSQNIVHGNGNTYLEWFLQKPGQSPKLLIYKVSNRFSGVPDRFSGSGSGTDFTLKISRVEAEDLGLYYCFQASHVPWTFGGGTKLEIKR", "OD450 nm", 0.05),
]

Record summary for F1.153.1 human-murine chimeric antibody (antibody, human IgG1, kappa, V domains shown) VH: QIQLVQSGPELKKPGETVKISCKASGYTFTTAGMQWVQKMPGKGFKWIGWINTHSGEPQYAEDFKGRFAFSLETSASTAYLQISNLKNEDTATYFCARSFYYHGSSFFYFDYWGQGTTLTVSS VL: DIVMTQSQKFMSTTVGDRVSITCKASQNVGTAVAWYQQKPGQSPKLLIYSASNRYTGVPDRFTGSGSGADFTLTISNMQSEDLADYFCQQYSRYPLTFGAGTKLELKR : reported OD450 at 0.1 nM antibody = 0.04

Record summary for F3.81.19 human-murine chimeric antibody (antibody, human IgG1, kappa, V domains shown) VH: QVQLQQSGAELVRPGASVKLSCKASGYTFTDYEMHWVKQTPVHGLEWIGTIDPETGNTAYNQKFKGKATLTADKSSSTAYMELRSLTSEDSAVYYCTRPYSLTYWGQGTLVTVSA VL: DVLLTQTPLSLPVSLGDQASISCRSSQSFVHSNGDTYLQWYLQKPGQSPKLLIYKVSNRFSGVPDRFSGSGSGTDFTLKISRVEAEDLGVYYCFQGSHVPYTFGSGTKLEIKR : reported OD450 at 0.1 nM antibody = 0.04

Record summary for F2.154.1 human-murine chimeric antibody (antibody, human IgG1, kappa, V domains shown) VH: QVQLQQSGAELVRPGASVKLSCKASGYRFTDYEMHWVKQTPVHGLEWIGTIDPETGNTAYTQKFMDKATLTADKSSSTAYMELRSLTSEDSAVYYCTRGYSFTYWGQGTLATVSA VL: DVLMTQTPLSLPVSLGDQASISCRSSQNIVHSNGNTYLQWYLQKPGQSPKLLIFKVSNRFSGVPDRFSGSGSGTDFTLKISRVEAEDLGVYYCFQGSHVPFTFGTGTKLEIKR : reported OD450 at 0.1 nM antibody = 0.05

Record summary for F2.39.2 human-murine chimeric antibody (antibody, human IgG1, kappa, V domains shown) VH: QVQLQQSGAELVRPGASVKVSCKASGYTFTDYEMHWMKQTPVHGLEWIGANEPETGRSAYDQKFKGKATLTADKSSSTAYMELRSLTSEDSAVYYCTRFYSFAYWGQGTLVTVSA VL: DVVMTQTPLSLPVSLGDQASISCRSSQGLVHNNGNTYLHWYLQKPGQSPKLLIYKVSNRFSGVPDRFSGSGSGTDFTLKISRVEAEDLGVYFCSQNTHVPPTFGGGTKLEIKR : reported OD450 at 0.1 nM antibody = 0.05

Record summary for F1.42.8 human-murine chimeric antibody (antibody, human IgG1, kappa, V domains shown) VH: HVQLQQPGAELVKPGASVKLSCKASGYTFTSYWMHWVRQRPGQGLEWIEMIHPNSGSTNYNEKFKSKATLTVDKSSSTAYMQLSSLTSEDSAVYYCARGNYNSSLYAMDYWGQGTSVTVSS VL: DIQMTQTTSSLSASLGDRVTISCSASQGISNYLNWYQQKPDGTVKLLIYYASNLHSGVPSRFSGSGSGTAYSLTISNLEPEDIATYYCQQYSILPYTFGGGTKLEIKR : reported OD450 at 0.1 nM antibody = 1.7
